Here the recorded abundance fitness is given for each entry.
B1: Gamma-crystallin C, residues 91 to 170; numbered along this chain, P07315 (parent)
chain: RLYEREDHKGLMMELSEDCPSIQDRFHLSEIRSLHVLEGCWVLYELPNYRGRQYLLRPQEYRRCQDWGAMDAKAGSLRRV

Variants of: B1
Assay: abundance fitness (aPCA) (normalised: wild type 0, dead -1); higher = more abundant; growth selection in yeast, the domain comes from the species named
Details: Homo sapiens
Parameter: abundance fitness

INSERT INTO assay_data (mutation_notation, recorded_result) VALUES
  ('A69T', -0.361),
  ('G75H', -0.736),
  ('Q65Y', -0.149),
  ('M13V', -0.002),
  ('Q65G', -0.08),
  ('N48T', -0.823),
  ('E30G', -0.273),
  ('S16R', -0.082),
  ('R32Q', -0.279),
  ('L11Q', -0.127),
  ('F26S', -0.69),
  ('R62Q', -0.1),
  ('S16D', -0.029),
  ('E4Y', -0.7),
  ('L15C', -0.09),
  ('G51R', -0.589),
  ('Q23L', -0.076),
  ('I22R', -0.771),
  ('R52W', -0.523),
  ('E6N', -0.416),
  ('E6R', -0.642),
  ('M13Y', -0.112),
  ('E45L', -0.875),
  ('V36L', -0.632),
  ('S29W', -0.113),
  ('N48H', -0.022),
  ('G10V', -0.821),
  ('E17W', -0.187),
  ('M70S', -0.052),
  ('R5L', -0.029),
  ('V80I', -0.341),
  ('R5A', -0.309),
  ('D18L', -0.956),
  ('S29K', -0.013),
  ('L43E', -0.804),
  ('V36C', -0.836),
  ('E45R', -0.437),
  ('R57G', -0.134),
  ('L2P', -1.13),
  ('M12R', -0.32),
  ('L46F', 0.047),
  ('I22C', -0.61),
  ('K9C', -0.103),
  ('R50M', -0.108),
  ('E30A', -0.133),
  ('Y61M', -0.964),
  ('S29P', -0.199),
  ('C40W', -0.103),
  ('N48R', -0.234),
  ('L56K', -0.806),
  ('S33T', -1.04),
  ('D7S', -0.277),
  ('E4L', -0.339),
  ('L46M', -0.188),
  ('D18E', -0.675),
  ('K9I', -0.68),
  ('R5G', -0.105),
  ('W67Q', -0.681),
  ('F26E', -0.923),
  ('D7L', -0.554),
  ('E30V', -0.275),
  ('I31T', -0.789),
  ('V36S', -0.969),
  ('M13Q', -0.22),
  ('I31K', -1.02),
  ('R50C', -0.021),
  ('P58A', -0.167),
  ('Q65T', -0.032),
  ('D24M', -0.194),
  ('E14S', -0.25),
  ('K9N', -0.085),
  ('L56T', -0.636),
  ('E17R', -0.422),
  ('G75Q', -0.746),
  ('E30F', -0.234),
  ('D18Q', -0.935);
